Would you kindly list Max MFI for each of these binders?
# Target: T1, human FLT3 (hFLT3) expressed on cells (human, UniProt P36888 27-993)
# T1 construct: whole, on cells; One molecule for all cell lines that carry human FLT3; also called RMA-hFLT3; FLT3 on REH cells
# T1 sequence (looked up): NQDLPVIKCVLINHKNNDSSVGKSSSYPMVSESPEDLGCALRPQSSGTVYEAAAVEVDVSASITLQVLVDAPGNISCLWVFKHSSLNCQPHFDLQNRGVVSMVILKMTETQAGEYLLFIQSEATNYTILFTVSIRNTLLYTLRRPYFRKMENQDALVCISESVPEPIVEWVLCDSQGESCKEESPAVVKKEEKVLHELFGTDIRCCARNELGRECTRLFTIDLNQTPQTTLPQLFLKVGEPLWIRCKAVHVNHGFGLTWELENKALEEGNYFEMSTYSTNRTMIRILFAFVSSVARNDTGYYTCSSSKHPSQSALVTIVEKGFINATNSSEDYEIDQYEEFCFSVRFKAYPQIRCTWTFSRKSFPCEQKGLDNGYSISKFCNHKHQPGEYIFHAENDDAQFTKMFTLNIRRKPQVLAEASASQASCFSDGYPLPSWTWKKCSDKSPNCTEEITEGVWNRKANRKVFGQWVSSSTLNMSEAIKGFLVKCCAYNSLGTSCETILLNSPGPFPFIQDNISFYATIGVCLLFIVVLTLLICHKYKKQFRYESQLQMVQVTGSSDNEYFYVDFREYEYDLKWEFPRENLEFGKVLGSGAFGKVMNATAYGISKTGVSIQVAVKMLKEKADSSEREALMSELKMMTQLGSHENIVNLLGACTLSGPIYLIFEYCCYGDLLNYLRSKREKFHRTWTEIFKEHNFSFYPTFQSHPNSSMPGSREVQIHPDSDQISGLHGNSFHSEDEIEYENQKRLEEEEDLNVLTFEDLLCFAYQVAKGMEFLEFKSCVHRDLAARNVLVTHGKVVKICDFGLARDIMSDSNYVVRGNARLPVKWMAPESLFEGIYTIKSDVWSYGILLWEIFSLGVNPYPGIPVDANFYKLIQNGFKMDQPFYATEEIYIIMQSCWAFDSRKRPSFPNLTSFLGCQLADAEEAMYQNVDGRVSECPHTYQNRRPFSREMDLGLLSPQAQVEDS
# Experimental Details: flow cytometry, purified mAb on RMA-hFLT3 cells
Give bare numbers, in MFI.

Would you be so kind as to report Max MFI for each listed record?
1. 11F4.B9 (antibody, V domains shown, Purified murine mAb from a hybridoma subclone) VH: EVQLQESGPELVKPGASVKISCKASGYSFTGYYIHWVKQGPEKSLEWIGEIIPSTGSTIYNQKFKAKATLTVDKSSSTAYLQLKSLTSEDSAVYYCERWGDYYGRDYWGQGTSVTVSS VL: DIVLTQSPASLAVSLGQRATISCRASESVDIYGNSFMHWYQQKPGQPPKLLIYRASNLESGIPARFSGSGSRTDFTLTINPVEADDVATYYCQQSNEDPRTFGGGTKLEIK
2. 1A2.A3 (antibody, V domains shown, Purified murine mAb from a hybridoma subclone) VH: EVQLQESGPELVKPGASVKISCKASGYSFTGYYIHWVKQSPEESLEWIGEIYPNTGITTYNQKFTAKATLTVDKSSNTAYMQLKSLTSEDSAVYYCTRWGDYYGRDYWGQGTSVTVSS VL: DIVLTQSPASLAVSLGQRATISCRASETVDTHGNSFMHWYQQKPGQPPKLLIYRASNLESGIPARFSGSGSRTDFTLTINPVEADDVATYYCQQSNEDPRTFGGGTKLEIK
3. 12H10.G7 (antibody, V domains shown, Purified murine mAb from a hybridoma subclone) VH: EVQLQESGPELVKPGASVKMSCKASGYTFTRYVMHWVKQRPGQGLEWIGFINPYNDDTKYNEKFKGKATLTSDKSSSTAYMELSSLTSEDSAVYHCARWRQLGSLDSWGQGTTLTVSS VL: NIVLTQSPASLAVSLGQRATISCRASESVDTYGSSFVHWYQQKPGQPPKLLIYLASNLESGVPARFSGSGSRSDFTLTIDPVEADDAATYYCQQNNEEPWTFGGGTKLEIK
4. 15A11.C8 (antibody, V domains shown, Purified murine mAb from a hybridoma subclone) VH: EVQLQESGGGLVKTGGSRKLSCAASGFTFSDYGMHWVRHTPEKGLEWVVYISSGGNTIFYTDTVKGRFTISRDNAKNTLFLQMTSLRSEDTAVYFCVRQGYYYAMDYWGQGASVTVSS VL: DIQMTQTTSSLSASLGDRVTIRCRASQDITNYLNWYQQKPDGAVKLLISYTSILQSGVPSRFSGSGSGTDYSLTISNLEQGDVATYFCQQGSSLPWTFGGGTKLEIK

1. 493
2. 499
3. 1140
4. 1410
